Protocol: physchem
Details: octanol/0.1 m phosphate buffer, pH 6.42
Procedure: Octanol/buffer partition ratios: The ratio of concentrations of a given solute in equilibrium distribution between two immiscible solvents is termed the partition coefficient. This expression properly refers only to the distribution of a single molecular species between the two phases. […] Total dye concentration in the two solvent phases was measured without correction for ionization or self-association and the recommended term, "partition ratio", is used to refer to these uncorrected distributions. […]
Measurement name: logD at 1000 µM
Answer as a number with no unit attached.

Tell me the measured logD at 1000 µM of O=C1OC2(c3ccc(O)cc3Oc3cc(O)ccc32)c2ccccc21 , please.
1.54

###

Protocol: Dialyzable (unbound) fraction of dye in human plasma
Type: in vitro ADME
Details: human plasma, 10^-6 M, 37° C.; read-out: Dialyzable fraction (mean ± S.E.M.)
Measurement name: fraction unbound at 1 µM
Answer as a number with no unit attached.

Tell me the measured fraction unbound at 1 µM of O=C1OC2(c3ccc(O)cc3Oc3cc(O)ccc32)c2ccccc21 [fluorescein] , please.
0.32

###

Protocol: Dialyzable (unbound) fraction of dye in human plasma
Assay type: in vitro ADME
Details: human plasma, 10^-3 M, 37° C.; read-out: Dialyzable fraction (mean ± S.E.M.)
Method: Measurement of unbound dye in plasma: Plasma was separated by centrifugation from the heparinized blood obtained from rats injected with sodium fluorescein or carboxyfluorescein in the intraocular dye distribution study. […] Dye concentration was measured in the dialysate spectrofluorophotometrically and from this value calculated the unbound plasma dye concentration. […]
Measurement name: fraction unbound at 1000 µM

Tell me the measured fraction unbound at 1000 µM of O=C1OC2(c3ccc(O)cc3Oc3cc(O)ccc32)c2ccccc21 , please.
0.3

###

Protocol: physchem
Details: octanol/0.1 m phosphate buffer, pH 7.38
Measurement name: logD at 10 µM
Answer as a number with no unit attached.

Tell me the measured logD at 10 µM of O=C1OC2(c3ccc(O)cc3Oc3cc(O)ccc32)c2ccccc21 [fluorescein] , please.
-0.194

###

Protocol: Dialyzable (unbound) fraction of dye in human plasma
Type: in vitro ADME
Details: human plasma, 10^-5 M, 37° C.; read-out: Dialyzable fraction (mean ± S.E.M.)
Measurement name: fraction unbound at 10 µM
Answer as a number with no unit attached.

Tell me the measured fraction unbound at 10 µM of O=C1OC2(c3ccc(O)cc3Oc3cc(O)ccc32)c2ccccc21 [fluorescein] , please.
0.33

###

Protocol: physchem
Details: octanol/0.1 m phosphate buffer, pH 6.42
Measurement name: logD at 10 µM
Answer as a number with no unit attached.

Tell me the measured logD at 10 µM of O=C1OC2(c3ccc(O)cc3Oc3cc(O)ccc32)c2ccccc21 , please.
1.58

###

Protocol: physchem
Details: octanol/0.1 m phosphate buffer, pH 7.38
Measurement name: logD at 1000 µM
Answer as a number with no unit attached.

Tell me the measured logD at 1000 µM of O=C1OC2(c3ccc(O)cc3Oc3cc(O)ccc32)c2ccccc21 , please.
-0.292
